Molecular target: Neurotensin receptor type 1 (Homo sapiens, UniProt P30989)
Sequence (P30989 whole entry): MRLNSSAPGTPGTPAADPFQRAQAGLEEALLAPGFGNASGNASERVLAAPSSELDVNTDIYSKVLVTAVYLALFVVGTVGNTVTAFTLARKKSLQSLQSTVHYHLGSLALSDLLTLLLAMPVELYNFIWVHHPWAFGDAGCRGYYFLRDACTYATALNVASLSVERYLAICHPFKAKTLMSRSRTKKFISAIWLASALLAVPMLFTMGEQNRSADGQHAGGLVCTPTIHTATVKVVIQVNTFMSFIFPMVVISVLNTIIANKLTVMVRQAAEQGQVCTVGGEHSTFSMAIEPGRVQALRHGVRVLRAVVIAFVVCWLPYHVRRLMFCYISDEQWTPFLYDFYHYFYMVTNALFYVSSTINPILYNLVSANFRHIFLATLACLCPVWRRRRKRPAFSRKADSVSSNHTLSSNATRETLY
Test: Displacement of [125I]I-Tyr(3)NT from human NTR1
Non-standard residues stand in square brackets, D forms with d. Residues, ends and D or L forms follow the SMILES beside them. *: point of attachment. X2 = [N-]=[N+]=N[C@@H](CCCCN)CC(=O)*; NMeR = CN[C@@H](CCCNC(=N)N)C(=O)O; Tle = CC(C)(C)[C@H](N)C(=O)O; β3hK = NCCCC[C@H](N)CC(=O)O
recorded.metric: Ki (nM)

compound	unit.label	observed.measurement
CN[C@@H](CCCNC(=N)N)C(=O)N[C@@H](CCCCN)C(=O)N1CCC[C@H]1C(=O)N[C@@H](Cc1c[nH]c2ccccc12)C(=O)N[C@H](C(=O)N[C@@H](CC(C)C)C(=O)O)C(C)(C)C (H-[NMeR]KPW[Tle]L-OH)	nM	180

(I) CC[C@@H](C)[C@H](NC(=O)[C@H](Cc1ccc(O)cc1)NC(=O)[C@@H]1CCCN1C(=O)[C@H](CCCNC(=N)N)NC(=O)[C@H](CCCNC(=N)N)NC)C(=O)N[C@@H](CC(C)C)C(=O)O
(II) CC(C)C[C@H](NC(=O)[C@@H](NC(=O)[C@H](Cc1ccc(O)cc1)NC(=O)[C@@H]1CCCN1C(=O)[C@H](CCCNC(=N)N)NC(=O)C[C@H](CCCCN)N=[N+]=[N-])C(C)(C)C)C(=O)O (X2-RPY[Tle]L-OH)
(III) CC(=O)N[C@@H](CCCCN)CC(=O)N[C@@H](CCCN=C(N)N)C(=O)N1CCC[C@H]1C(=O)N[C@@H](Cc1ccc(O)cc1)C(=O)N[C@H](C(=O)N[C@@H](CC(C)C)C(=O)O)C(C)(C)C (Ac-[β3hK]RPY[Tle]L-OH)
*Q* Ascending by Ki, please: list the compounds accordingly. Use the labels to give the requested order.
*A* I, II, III

* * *

System: Rattus norvegicus
Test: Hypothermic activity in Sprague-Dawley rat assessed as decrease in core body temperature at 5 mg/kg, ip at time of maximal body temperature decrease
Type: functional
Settings: route intraperitoneal
Starred links: 1 amine or outer side, 2 acyl side, 3 side chain; linkers in the order of their positions; H or OH if unused. Non-standard residues stand in square brackets, D forms with d. Residues, ends and D or L forms follow the SMILES beside them. *: point of attachment. NMeβ3hLys = CN([C@@H](CCCCN)CC(=O)[*:2])[*:1]; X1 = [N-]=[N+]=N[C@@H](CCCNC(=N)N)C(=O)*; NMeR = CN[C@@H](CCCNC(=N)N)C(=O)O; Tle = CC(C)(C)[C@H](N)C(=O)O; X3 = C[C@](N)(CCCCN)CC(=O)*
Recorded Activity by entry
Give a bare numeral; the unit °C is implied.

Before answering, review these 3 worked examples.
molecule	unit.label	Activity
CN[C@@H](CCCNC(=N)N)C(=O)N[C@@H](CCCCN)C(=O)N1CCC[C@H]1C(=O)N[C@@H](Cc1c[nH]c2ccccc12)C(=O)N[C@H](C(=O)N[C@@H](CC(C)C)C(=O)O)C(C)(C)C (H-[NMeR]KPW[Tle]L-OH)	°C	-5.52
CN[C@@H](CCCCN)CC(=O)N[C@@H](CCCNC(=N)N)C(=O)N1CCC[C@H]1C(=O)N[C@@H](Cc1ccc(O)cc1)C(=O)N[C@H](C(=O)N[C@@H](CC(C)C)C(=O)O)C(C)(C)C (NMeβ3hLys-RPY[Tle]L-OH)	°C	-3.68
CC(C)C[C@H](NC(=O)[C@@H](NC(=O)[C@H](Cc1c[nH]c2ccccc12)NC(=O)[C@@H]1CCCN1C(=O)[C@H](CCCCN)NC(=O)[C@H](CCCNC(=N)N)N=[N+]=[N-])C(C)(C)C)C(=O)O (X1-KPW[Tle]L-OH)	°C	-4.29

Shift focus to the following entry.
Lab note: CC(C)C[C@H](NC(=O)[C@@H](NC(=O)[C@H](Cc1ccc(O)cc1)NC(=O)[C@@H]1CCCN1C(=O)[C@H](CCCNC(=N)N)NC(=O)C[C@@](C)(N)CCCCN)C(C)(C)C)C(=O)O (X3-RPY[Tle]L-OH) gave Activity of -2.13

* * *

Experiment: Metabolic stability in rat serum assessed as half time of disappearance at 1 mM by MALDI-TOF mass spectrometry assay
Assay type: ADME, cell-free
Conditions: read-out: T50
Non-standard residues stand in square brackets, D forms with d. Residues, ends and D or L forms follow the SMILES beside them. *: point of attachment. Pentanoyl(5-guanidino) = NC(N)=NCCCCC(=O)*; αMeR = C[C@](N)(CCCNC(=N)N)C(=O)O; Tle = CC(C)(C)[C@H](N)C(=O)O
recorded.metric: half-life at 1000 µM (h)

molecule	observed.measurement
CC(C)C[C@H](NC(=O)[C@@H](NC(=O)[C@H](Cc1c[nH]c2ccccc12)NC(=O)[C@@H]1CCCN1C(=O)[C@H](CCCCN)NC(=O)CCCCNC(=N)N)C(C)(C)C)C(=O)O ({Pentanoyl(5-guanidino)}-KPW[Tle]L-OH)	108

(a) CC(C)C[C@H](NC(=O)[C@@H](NC(=O)[C@H](Cc1c[nH]c2ccccc12)NC(=O)[C@@H]1CCCN1C(=O)[C@H](CCCCN)NC(=O)[C@@H](N)CCCN=C(N)N)C(C)(C)C)C(=O)O (H-RKPW[Tle]L-OH)
(b) CC(C)C[C@H](NC(=O)[C@@H](NC(=O)[C@H](Cc1c[nH]c2ccccc12)NC(=O)[C@@H]1CCCN1C(=O)[C@H](CCCCN)NC(=O)[C@@](C)(N)CCCNC(=N)N)C(C)(C)C)C(=O)O (H-[αMeR]KPW[Tle]L-OH)
(c) CC[C@@H](C)[C@H](NC(=O)[C@H](Cc1ccc(O)cc1)NC(=O)[C@@H]1CCCN1C(=O)[C@H](CCCN=C(N)N)NC(=O)[C@H](CCCN=C(N)N)N=[N+]=[N-])C(=O)N[C@@H](CC(C)C)C(=O)O
*Q* Put the items in order so that reported half-life at 1000 µM rises from first to last. Return the labels ranked in the requested order, please.
*A* a, c, b

* * *

Experiment: Metabolic stability in human serum assessed as half time of disappearance at 1 mM by MALDI-TOF mass spectrometry assay
Assay type: ADME, cell-free
Details: read-out: T50
Starred links: 1 amine or outer side, 2 acyl side, 3 side chain; linkers in the order of their positions; H or OH if unused. Non-standard residues stand in square brackets, D forms with d. Residues, ends and D or L forms follow the SMILES beside them. *: point of attachment. NMeβ3hLys = CN([C@@H](CCCCN)CC(=O)[*:2])[*:1]; X1 = [N-]=[N+]=N[C@@H](CCCNC(=N)N)C(=O)*; NMeR = CN[C@@H](CCCNC(=N)N)C(=O)O; Tle = CC(C)(C)[C@H](N)C(=O)O; Ahp = NCCCCCCC(=O)O
recorded.metric: half-life at 1000 µM (h)

Sample answers from the record:
compound	unit.label	half-life at 1000 µM
CN[C@@H](CCCCN)CC(=O)N[C@@H](CCCN=C(N)N)C(=O)N1CCC[C@H]1C(=O)N[C@@H](Cc1ccc(O)cc1)C(=O)N[C@H](C(=O)N[C@@H](CC(C)C)C(=O)O)C(C)(C)C (NMeβ3hLys-RPY[Tle]L-OH)	h	57.2
CN[C@@H](CCCNC(=N)N)C(=O)N[C@@H](CCCCN)C(=O)N1CCC[C@H]1C(=O)N[C@@H](Cc1c[nH]c2ccccc12)C(=O)N[C@H](C(=O)N[C@@H](CC(C)C)C(=O)O)C(C)(C)C (H-[NMeR]KPW[Tle]L-OH)	h	123
CC[C@@H](C)[C@H](NC(=O)[C@H](Cc1ccc(O)cc1)NC(=O)[C@@H]1CCCN1C(=O)[C@H](CCCNC(=N)N)NC(=O)[C@H](CCCNC(=N)N)NC)C(=O)N[C@@H](CC(C)C)C(=O)O	h	14
CC[C@H](C)[C@H](NC(=O)[C@H](Cc1ccc(O)cc1)NC(=O)[C@@H]1CCCN1C(=O)[C@H](CCCNC(=N)N)NC(=O)[C@@H](N)CCCNC(=N)N)C(=O)N[C@@H](CC(C)C)C(=O)O	h	0.282

(I) CC(C)C[C@H](NC(=O)[C@@H](NC(=O)[C@H](Cc1ccc(O)cc1)NC(=O)[C@@H]1CCCN1C(=O)[C@H](CCCNC(=N)N)NC(=O)CCCCCCN)C(C)(C)C)C(=O)O (H-[Ahp]RPY[Tle]L-OH)
(II) CC[C@@H](C)[C@H](NC(=O)[C@H](Cc1ccc(O)cc1)NC(=O)[C@@H]1CCCN1C(=O)[C@H](CCCNC(=N)N)NC(=O)[C@@](C)(N)CCCNC(=N)N)C(=O)N[C@@H](CC(C)C)C(=O)O
(III) CC(C)C[C@H](NC(=O)[C@@H](NC(=O)[C@H](Cc1c[nH]c2ccccc12)NC(=O)[C@@H]1CCCN1C(=O)[C@H](CCCCN)NC(=O)[C@@H](N)CCCN=C(N)N)C(C)(C)C)C(=O)O (H-RKPW[Tle]L-OH)
(IV) CC[C@H](C)[C@H](NC(=O)[C@H](Cc1ccc(O)cc1)NC(=O)[C@@H]1CCCN1C(=O)[C@H](CCCNC(=N)N)NC(=O)[C@H](CCCNC(=N)N)NC(C)=O)C(=O)N[C@@H](CC(C)C)C(=O)O
(V) CC(C)C[C@H](NC(=O)[C@@H](NC(=O)[C@H](Cc1c[nH]c2ccccc12)NC(=O)[C@@H]1CCCN1C(=O)[C@H](CCCCN)NC(=O)[C@H](CCCNC(=N)N)N=[N+]=[N-])C(C)(C)C)C(=O)O (X1-KPW[Tle]L-OH)
*Q* Sort ascending by half-life at 1000 µM. Show the ranking through the labels, in the order asked for.
*A* III, IV, II, I, V
